Test system: TNFa production in J774 cells
Assay: Cytokine production in stimulated J774 cells, TNFa (ELISA)
Format: cell-based
Details: Normal (LPS 0.1 μg/mL)
Where Cytokine production in J774 cells as % DMSO control, TNFa Normal 50 μM equals or exceeds 90 % DMSO control, the correct label is condition met; where it does not, the label is condition not met.

Asked: Given CC[C@H]1OC(=O)[C@H](C)C(=O)[C@H](C)[C@@H](O[C@@H]2O[C@H](C)CC(N(C)C)[C@H]2O)[C@](C)(O)C[C@@H](C)CN(C)[C@H](C)[C@H]2OC(=O)O[C@@]21C (stereo partly shown) , state whether its Cytokine production in J774 cells as % DMSO control, TNFa Normal 50 μM is at least 90 % DMSO control.
Given back: condition not met

Asked: Confirm if Cytokine production in J774 cells as % DMSO control, TNFa Normal 50 μM reported for the compound CC[C@H]1OC(=O)[C@H](C)C(O)[C@H](C)[C@@H](O[C@@H]2O[C@H](C)C[C@H](N(C)C)[C@H]2O)/C(C)=C/[C@@H](C)CN(C)[C@H](C)[C@@H](O)[C@]1(C)O (stereo partly shown) is 90 % DMSO control or above.
Given back: condition met

Asked: Threshold query (Cytokine production in J774 cells as % DMSO control, TNFa Normal 50 μM >= 90 % DMSO control) on CC[C@H]1OC(=O)[C@H](C)C2(O)O[C@](C)(C[C@@H](C)CN(C)[C@H](C)[C@@H](O)[C@]1(C)O)[C@H](O[C@@H]1O[C@H](C)CC(N(C)C)[C@H]1O)[C@H]2C (stereo partly shown)
Given back: condition not met

Asked: Assess whether reported Cytokine production in J774 cells as % DMSO control, TNFa Normal 50 μM for `CC[C@H]1OC(=O)[C@H](C)[C@@]2(O)O[C@@](C)(C[C@@H](C)CN[C@H](C)[C@@H](O)[C@]1(C)O)[C@H](O[C@@H]1O[C@H](C)C[C@H](NC)[C@H]1O)[C@H]2C` sits at 90 % DMSO control or higher.
Given back: condition met

Asked: Does the reported Cytokine production in J774 cells as % DMSO control, TNFa Normal 50 μM for CCOC(=O)CC1(C)C(=O)O[C@H](CC)[C@@](C)(O)[C@H](O)[C@@H](C)N(C)C[C@H](C)C[C@]2(C)O[C@@]1(O)[C@H](C)[C@H]2O[C@@H]1O[C@H](C)CC(N(C)C)[C@H]1O (stereo partly shown) fall at or above the 90 % DMSO control mark?
Given back: condition not met

Asked: Assess whether reported Cytokine production in J774 cells as % DMSO control, TNFa Normal 50 μM for CC[C@H]1OC(=O)[C@H](C)C(=O)[C@H](C)[C@@H](O[C@@H]2O[C@H](C)CC(N(C)C)[C@H]2OC(C)=O)[C@](C)(O)C[C@@H](C)CN(C)[C@H](C)[C@@H](O)[C@]1(C)O (stereo partly shown) sits at 90 % DMSO control or higher.
Given back: condition not met

Asked: Determine whether measured Cytokine production in J774 cells as % DMSO control, TNFa Normal 50 μM meets or exceeds 90 % DMSO control for CC[C@H]1OC(=O)[C@H](C)[C@@H](O[C@H]2C[C@@](C)(OC)[C@@H](O)[C@H](C)O2)[C@H](C)[C@@H](O[C@@H]2O[C@H](C)C[C@H](N(C)C)[C@H]2O)[C@](C)(O)C[C@@H](C)CN(C)[C@H](C)[C@@H](O)[C@]1(C)O [Compound 3, reference compound]
Given back: condition met

Asked: Could you please find out whether CCC1OC(=O)C(C)C(=O)C(C)C(OC2OC(C)CC(NC)C2O)C(C)(O)CC(C)CN(C)C(C)C(O)C1(C)O (stereo not shown) has Cytokine production in J774 cells as % DMSO control, TNFa Normal 50 μM that meets 90 % DMSO control or exceeds it?
Given back: condition not met

----------
System: E. coli
Test: Antibiotic dilution assay, E. coli
Format: cell-based
Details: Escherichia coli; liquid medium, OD600; read-out: Bacterial IC 50 (μM) E. Coli
Method: The antibiotic activity of the compounds was determined via antibiotic dilution assay. After filling 100 μl growth medium into all the wells of a 96 well plate, the compounds were diluted from 1 mM to 0.010 μM. […] The OD600 was then determined on a standard plate reader. Various analogs were compared in vitro to determine key properties. Antibacterial effect was determined in representative Gram negative (E. coli) and positive (S. aureus) organisms using the method of example 16. […]
Measured metric: IC50 (µM)
Reply numerically in µM, unit not repeated.

IC50 reported for this compound CC[C@H]1OC(=O)[C@H](C)C(O)[C@H](C)[C@@H](O[C@@H]2O[C@H](C)CC([N+](C)(C)[O-])[C@H]2O)[C@](C)(O)C[C@@H](C)C[N+](C)([O-])[C@H](C)[C@@H](O)[C@]1(C)O (stereo partly drawn) : 1090

Looking up CC[C@H]1OC(=O)[C@H](C)C(=O)[C@H](C)[C@@H](O[C@@H]2O[C@H](C)CC(N(C)C)[C@H]2OC(C)=O)[C@](C)(O)C[C@@H](C)CN(C)[C@H](C)[C@@H](O)[C@]1(C)O (stereo partly drawn) , I see its IC50 listed as 1270

Value of IC50 reported for the compound CCOC(=O)CC1(C)C(=O)O[C@H](CC)[C@@](C)(O)[C@H](O)[C@@H](C)N(C)C[C@H](C)C[C@]2(C)O[C@@]1(O)[C@H](C)[C@H]2O[C@@H]1O[C@H](C)CC(N(C)C)[C@H]1O (stereo partly drawn) is 980

----------
Tested on: Jurkat
Test: Cytotoxicity of the substances (TC50), Jurkat
Assay type: cell-based
Conditions: Jurkat cells
Task for the reader: assign each of the following compounds its reported TC50 Jurkat.

Per the record, CCC1OC(=O)C(C)C2(O)OC(C)(CC(C)CN(C)C(C)C(=O)C1(C)O)C(OC1OC(C)CC(N(C)C)C1O)C2C (stereo not shown) has TC50 Jurkat of > 100 µM

TC50 Jurkat reported for this compound CC[C@H]1OC(=O)[C@H](C)[C@@H](O[C@H]2C[C@@](C)(OC)[C@@H](O)[C@H](C)O2)[C@H](C)[C@@H](O[C@@H]2O[C@H](C)C[C@H](N(C)C)[C@H]2O)[C@](C)(O)C[C@@H](C)CN(C)[C@H](C)[C@@H](O)[C@]1(C)O [Compound 3, reference compound] : > 100 µM

Entry CCOC(=O)CC1(C)C(=O)O[C@H](CC)[C@@](C)(O)[C@H](O)[C@@H](C)N(C)C[C@H](C)C[C@]2(C)O[C@@]1(O)[C@H](C)[C@H]2O[C@@H]1O[C@H](C)CC(N(C)C)[C@H]1O (stereo partly shown) — recorded TC50 Jurkat = > 100 µM

For record CC[C@H]1OC(=O)[C@H](C)C2(O)O[C@](C)(C[C@@H](C)CN(C)[C@H](C)[C@@H](O)[C@]1(C)O)[C@H](O[C@@H]1O[C@H](C)CC(N(C)C)[C@H]1O)[C@H]2C (stereo partly shown) the listed TC50 Jurkat is 40

----------
Test system: S. aureus
Test: Antibiotic dilution assay, S. aureus
Format: cell-based
Details: liquid medium, OD600; read-out: Bacterial IC 50 (μM) S. Aureus
For each entry below, report its IC50 value.

IC50 reported for this molecule CCCCCCCCC=CCCCCCCCC(=O)OC1C(OC2C(C)C(=O)C(C)C(=O)OC(CC)C(C)(O)C(OC(=O)CCCCCCCC=CCCCCCCCC)C(C)N(C)CC(C)CC2(C)O)OC(C)CC1N(C)C (stereo not drawn) [Compound 9b] : 2500 µM

Sample CC[C@H]1OC(=O)[C@H](C)C(O)[C@H](C)[C@@H](O[C@@H]2O[C@H](C)C[C@H](N(C)C)[C@H]2O)/C(C)=C/[C@@H](C)CN(C)[C@H](C)[C@@H](O)[C@]1(C)O (stereo partly drawn) [Compound 13] ; IC50 observed: 1570 µM

The molecule identified as CCC1OC(=O)C(C)C(=O)C(C)C(OC2OC(C)CC(NC)C2O)C(C)(O)CC(C)CN(C)C(C)C(O)C1(C)O (stereo not drawn) [Compound 11] registered its IC50 at 2340 µM
